Assay: qHTS of pediatric cancer cell lines to identify multiple opportunities for drug repurposing: Primary screen for A673 cells (AID 1347092); note: nearly all actives have a fitted effect of over 45% in size
Settings: A673 Ewing sarcoma viability, CellTiter-Glo ATP luminescence, 48 h; series mostly up to 46 µM
Results filed as inconclusive are left out. Activity calls are given as the source filed them. Calls come from the whole dose curve; as a rule, active = well fitted cell-killing curve with a large enough effect; inconclusive = small, poorly fitted or top-dose-only effect; inactive = no such curve, though single readings can be large or run the other way.
A correct response names exactly one class from active, inactive

*Q* Kindly provide the recorded test outcome for the following compound: O=[N+]([O-])c1ncc[nH]1
*A* inactive

*Q* // same read-out, input: O=[N+]([O-])/N=C1\NCCN1Cc1ccc(Cl)nc1
*A* inactive

*Q* // same read-out, input: Cc1cc(O)ccc1Cl
*A* inactive

*Q* // same read-out, input: COc1ccc(N(C(=O)Oc2c(C)cccc2C)c2ccnc(Nc3ccc(N4CCN(C)CC4)cc3)n2)c(OC)c1
*A* active

*Q* // same read-out, input: CCCCOC(=O)c1ccccc1C(=O)OCc1ccccc1
*A* inactive

*Q* // same read-out, input: COc1ccc2c(c1)[C@]13CCCCC1C(C2)N(C)CC3 (stereo partly specified)
*A* inactive

*Q* // same read-out, input: O=C(Nc1ccccc1-c1ccc(Cl)cc1)c1cccnc1Cl
*A* inactive

*Q* // same read-out, input: NC1CC1c1ccccc1 (stereo unspecified)
*A* inactive

*Q* // same read-out, input: CC(=O)OCC1=C(C(=O)O)N2C(=O)[C@@H](N)[C@@H]2SC1
*A* active

*Q* // same read-out, input: CCOP(=O)(OCC)C(C)NC(=O)N(CCCl)N=O (stereo unspecified)
*A* inactive

*Q* // same read-out, input: CC(=O)O[C@@]12CO[C@H]1C[C@H](O)[C@@]1(C)C(=O)[C@H](O)C3=C(C)[C@@H](O)C[C@@](O)([C@@H](OC(=O)c4ccccc4)[C@@H]21)C3(C)C
*A* active

###

Test: Quantitative High-Throughput drug screen in 47 multiple myeloma cell lines against the NCATS MIPE library collection: MMM1_PLB cell viability assay (AID 1918976); note: potency is the fitted concentration of half-maximal effect; nearly all actives have a fitted effect of over 35% in size
Details: MMM1 myeloma cells viability, CellTiter-Glo, 48 h; series mostly up to 45.8 µM
Results filed as inconclusive are left out. Calls of active or inactive are those of the source. Calls follow the shape of the dose curve; as a rule, active = well fitted cell-killing curve with a large enough effect; inconclusive = small, poorly fitted or top-dose-only effect, or effect the other way; inactive = no such curve, though single readings can be large or run the other way.
attribute_measured: Potency

*Q* Look up Potency: c1ccc(CCCN2CCN(CCOC(c3ccccc3)c3ccccc3)CC2)cc1
*A* 18.7 µM (active)

*Q* // same read-out, input: C[C@@]12OC(=O)[C@]1([C@@H](O)[C@@H]1C=CCCC1)NC(=O)[C@H]2CCCl
*A* 0.132 µM (active)

###

Assay: qHTS assay for small molecule activators of the nuclear factor-kappa B (NF-kB) signaling pathway (AID 651749); note: % of control where 0% means no effect
Conditions: NF-kB-bla ME-180 cells, beta-lactamase FRET ratio, 16 h; stronger effect = higher value
Results filed as inconclusive are left out. The source made the active and inactive calls. The call rests on the fitted dose curve; in most records, active means well fitted activation curve with a large enough effect in the signal ratio; inconclusive means small, poorly fitted or top-dose-only effect, or a change in a side signal; inactive means flat fitted curve, though single readings scatter; the % refers to the signal ratio.
attribute_measured: activation

*Q* Look up activation: CCCN(CCC)c1c([N+](=O)[O-])cc(S(N)(=O)=O)cc1[N+](=O)[O-]
*A* -2.96% (inactive)

*Q* // same read-out, input: CC(C)Oc1cccc(NC(=O)c2ccccc2C(F)(F)F)c1
*A* 1.81% (inactive)

*Q* // same read-out, input: CC(C)(C)C(O)C(Oc1ccc(Cl)cc1)n1cncn1 (stereo not drawn)
*A* -0.211% (inactive)

*Q* // same read-out, input: O=C(O)c1cc(Oc2ccc(C(F)(F)F)cc2Cl)ccc1[N+](=O)[O-]
*A* -1.27% (inactive)

*Q* // same read-out, input: CCCCCCCCCCCCCCCC[N+](C)(C)C
*A* 1.41% (inactive)

*Q* // same read-out, input: OCCCBr
*A* -0.539% (inactive)

*Q* // same read-out, input: Nc1ccc([N+](=O)[O-])cc1
*A* -0.186% (inactive)

*Q* // same read-out, input: O=[N+]([O-])c1c(Cl)c(Cl)cc(Cl)c1Cl
*A* -0.885% (inactive)

###

Test: Stat Signaling Pathway (AID 446);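 note: ME-180 cervical cancer cells given 40 pM IL-6 alongside compound; SIE-controlled beta-lactamase reporter measured as 460/530 nm FRET emission ratio; % is set by controls: 0 for no effect and ±100 for the full control effect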
Conditions: ME-180 (cervical carcinoma) SIE beta-lactamase reporter, IL-6 stimulated, 5 h; at 17.2 µM (top of the series)
Records with an inconclusive call do not appear.
Provide the reported activity, negative = inhibition of each item.
Numbers only here, please. The scale is %.

*Q* Look up activity, negative = inhibition: CCCCc1ccc(C(=O)O)nc1
*A* 6.81

*Q* // same read-out, input: NCCc1c[nH]c2ccc(O)cc12
*A* -0.625

*Q* // same read-out, input: CN(C)[C@@H]1C(=O)C(C(N)=O)=C(O)[C@@]2(O)C(=O)C3=C(O)c4c(O)cccc4[C@@](C)(O)[C@H]3[C@H](O)[C@@H]12
*A* 3.84

*Q* // same read-out, input: O=c1cccc2n1CC1CNC[C@H]2C1
*A* 6.88

###

Provide the reported activation of each item.
Target: Thyrotropin-releasing hormone receptor (Homo sapiens) (UniProt P34981)
Sequence (P34981 whole entry, looked up): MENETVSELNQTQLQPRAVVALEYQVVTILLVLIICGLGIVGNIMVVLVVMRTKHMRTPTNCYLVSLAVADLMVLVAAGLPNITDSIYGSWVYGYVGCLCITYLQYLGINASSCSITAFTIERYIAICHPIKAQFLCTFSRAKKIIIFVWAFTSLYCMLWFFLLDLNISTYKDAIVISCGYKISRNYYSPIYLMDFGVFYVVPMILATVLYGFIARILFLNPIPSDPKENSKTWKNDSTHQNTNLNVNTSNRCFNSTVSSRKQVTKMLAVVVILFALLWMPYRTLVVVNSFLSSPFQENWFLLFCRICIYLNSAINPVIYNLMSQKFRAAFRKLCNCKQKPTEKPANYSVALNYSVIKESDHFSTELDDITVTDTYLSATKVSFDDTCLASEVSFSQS
Test: qHTS for Small Molecule Agonists and Allosteric Enhancers of Human TRH Receptor: Validation Screen for Agonists (AID 493127);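 note: intracellular calcium rise by fluo-8 fluorescence before TRH EC20 addition; 0% is about no effect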
Details: TRH receptor agonist cell assay; at 2 µM; stronger effect = higher value
Numbers only here, please. The scale is %.

*Q* Look up activation: CC(C)Oc1cccnc1N(C)C1CCN(Cc2ccccc2)CC1
*A* 0

*Q* // same read-out, input: NCc1cc(=O)[nH]o1
*A* -4.19

*Q* // same read-out, input: O=C(Cc1ccc(Cl)c(Cl)c1)N1CCCCC1CN1CCCC1 (configuration not stated)
*A* 1.12

*Q* // same read-out, input: CC(=O)NCCc1c[nH]c2ccccc12
*A* 0.375

*Q* // same read-out, input: Oc1ccc2c3c1O[C@H]1c4[nH]c5c(c4C[C@@]4(O)[C@@H](C2)N(CC2CC2)CC[C@]314)C[C@@]1(O)[C@H]2Cc3ccc(O)c4c3[C@@]1(CCN2CC1CC1)[C@H]5O4
*A* 0.625

*Q* // same read-out, input: C[C@]12CCC3C(CC[C@H]4C[C@H](O)CC[C@]34C)C1CC[C@@H]2C(=O)CO (some centres not stated)
*A* 1.56

*Q* // same read-out, input: O=C(O)[C@@H]1CCN1
*A* 0.75

*Q* // same read-out, input: NCCc1c[nH]c2ccccc12
*A* -0.438

*Q* // same read-out, input: NC1CCc2cc(O)c(O)cc2C1 (configuration not stated)
*A* 0.75

*Q* // same read-out, input: NCCc1c[nH]c2ccc(O)cc12
*A* 1.44

*Q* // same read-out, input: C[C@@H]1O[C@H](C[N+](C)(C)C)C[C@H]1O
*A* 20.8

*Q* // same read-out, input: Cn1cnc(CCN)c1
*A* 0.562

###

Assay: qHTS of pediatric cancer cell lines to identify multiple opportunities for drug repurposing: Primary screen for U-2 OS cells (AID 1347096); note: nearly all actives have a fitted effect of over 50% in size
Conditions: U-2 OS viability, CellTiter-Glo luminescence, 48 h; series mostly up to 46 µM
Inconclusive results are not listed. The source made the active and inactive calls. The call rests on the fitted dose curve; in most records, active means well fitted cell-killing curve with a large enough effect; inconclusive means small, poorly fitted or top-dose-only effect; inactive means flat fitted curve, though single readings scatter.
A correct response names exactly one class from active, inactive

*Q* Kindly provide the recorded test outcome for the following molecule: COc1ccc(CC2NCCc3cc(OC)c(OC)cc32)cc1OC (stereo not given)
*A* inactive

*Q* // same read-out, input: ClC1=C(Cl)[C@]2(Cl)[C@@H]3[C@@H]4C[C@@H]([C@H]5O[C@@H]45)[C@@H]3[C@@]1(Cl)C2(Cl)Cl
*A* inactive

*Q* // same read-out, input: CSCC[C@@H](NC(=O)[C@@H](Cc1ccccc1)NC(=O)CNC(=O)CNC(=O)[C@@H](N)Cc1ccc(O)cc1)C(=O)O
*A* inactive

*Q* // same read-out, input: CCCN1CCO[C@@H]2c3cc(O)ccc3OC[C@@H]21
*A* inactive

*Q* // same read-out, input: O=[N+]([O-])c1c(Cl)c(Cl)cc(Cl)c1Cl
*A* inactive

*Q* // same read-out, input: CCN1C[C@]2(OC(=O)c3ccccc3NC(C)=O)CC[C@H](OC)[C@@]34[C@H]5CC6[C@@H](OC)C[C@](O)(C(C[C@@H]23)[C@@H]14)[C@@]5(O)[C@@H]6OC
*A* inactive

*Q* // same read-out, input: COc1cc2cc(c1Cl)N(C)C(=O)C[C@H](OC(=O)C(C)C)[C@]1(C)O[C@H]1[C@H](C)[C@@H]1C[C@@](O)(NC(=O)O1)[C@H](OC)C=CC=C(C)C2
*A* inactive

*Q* // same read-out, input: CCNC(=O)CC1N=C(c2ccc(Cl)cc2)c2cc(OC)ccc2-n2c(C)nnc21 (stereo not given)
*A* inactive

*Q* // same read-out, input: NC1=NC(=O)N2CC12 (stereo not given)
*A* inactive

*Q* // same read-out, input: COc1ccc2c(c1)CN(C)CC2c1ccc(Cl)c(Cl)c1 (stereo not given)
*A* inactive

*Q* // same read-out, input: CC(=O)O[C@@]12CO[C@H]1C[C@H](O)[C@@]1(C)C(=O)[C@H](O)C3=C(C)[C@@H](O)C[C@@](O)([C@@H](OC(=O)c4ccccc4)[C@@H]21)C3(C)C
*A* inactive

*Q* // same read-out, input: CC1=C(C(=O)O)N2C(=O)[C@@H](N)[C@H]2SC1
*A* inactive

*Q* // same read-out, input: CCOCCOC(C)=O
*A* inactive

*Q* // same read-out, input: C[C@@H]1CC[C@H]2[C@@H](C)C(=O)O[C@@H]3O[C@@]4(C)CC[C@H]1[C@]32OO4
*A* inactive

*Q* // same read-out, input: CCN(CC)C(=O)c1ccc(C2=CC3(CCNCC3)Oc3cccc(O)c32)cc1
*A* inactive

*Q* // same read-out, input: CN1[C@H]2CC(O)C[C@H]1[C@H]1O[C@H]12 (stereo not given in full)
*A* inactive

*Q* // same read-out, input: C[C@]12CC[C@H](O)CC1=CC[C@H]1[C@H]3CCC(=O)[C@@]3(C)CC[C@@H]12
*A* inactive

*Q* // same read-out, input: C[C@@H]1CC[C@@]2(OC1)O[C@H]1C[C@H]3[C@@H]4CC=C5C[C@@H](O[C@@H]6O[C@H](CO)[C@@H](O[C@@H]7O[C@@H](C)[C@H](O)[C@@H](O)[C@@H]7O)[C@H](O)[C@@H]6O[C@@H]6O[C@@H](C)[C@H](O)[C@@H](O)[C@@H]6O)CC[C@]5(C)[C@@H]4CC[C@]3(C)[C@@H]1[C@H]2C
*A* active

*Q* // same read-out, input: CC(C)N[C@@H]1CCn2c(=O)[nH]c3cccc(c32)[C@@H]1O
*A* active

*Q* // same read-out, input: COc1cccc2c1[C@]13CCN(CC4CC4)[C@H](C2)[C@]1(OC)CCC(=O)C3
*A* inactive

*Q* // same read-out, input: O=C(O)CCCOc1ccc(Cl)cc1Cl
*A* inactive

*Q* // same read-out, input: CCOC(=O)c1cncn1[C@H](C)c1ccccc1
*A* inactive

*Q* // same read-out, input: O=S(=O)(F)Cc1ccccc1
*A* inactive

*Q* // same read-out, input: Nc1ccc([N+](=O)[O-])cc1
*A* inactive

*Q* // same read-out, input: CN[C@@H]1Cc2cccc3[nH]c(=O)n(c23)C1
*A* inactive

*Q* // same read-out, input: CC(C)(C)C(O)C(Oc1ccc(Cl)cc1)n1cncn1 (stereo not given)
*A* inactive

*Q* // same read-out, input: C#C[C@]1(O)C=C[C@@H]2[C@@H]3CCC4=CC(=O)CC[C@@H]4[C@H]3CC[C@@]21CC
*A* inactive

*Q* // same read-out, input: COCC1(CO)C(=O)C2CCN1CC2 (stereo not given)
*A* inactive

*Q* // same read-out, input: C[C@]12COC(=O)C[C@@H]1CC[C@@H]1[C@H]2CC[C@@]2(C)[C@H]1CC[C@]2(C)O
*A* inactive

*Q* // same read-out, input: CC(C)(C)[C@]1(O)C[C@@H]2OC(=O)C[C@@]23C(=O)O[C@@H]2OC(=O)[C@H](O)C213 (stereo not given in full)
*A* inactive

*Q* // same read-out, input: Oc1ccc2c3c1O[C@H]1[C@@H](O)C=C[C@H]4[C@@H](C2)NCC[C@@]341
*A* inactive

*Q* // same read-out, input: O=C(Oc1ccc([N+](=O)[O-])cc1)N1CCC(C(O)(c2ccc3c(c2)OCO3)c2ccc3c(c2)OCO3)CC1
*A* inactive

*Q* // same read-out, input: C[C@@H]1[C@H](O)[C@@H](C)C=CC=CCCC=CC=CC=CC=C[C@H](O[C@H]2O[C@@H](C)[C@H](O)[C@@H](N)[C@@H]2O)CC2O[C@](O)(C[C@@H](O)[C@H](O)CC[C@@H](O)C[C@@H](O)C[C@@H](O)CC(=O)O[C@H]1C)C[C@H](O)[C@H]2C(=O)O
*A* inactive

*Q* // same read-out, input: CC(=Cc1csc(C)n1)[C@@H]1C[C@H]2O[C@]2(C)CCC[C@H](C)[C@@H](O)[C@@H](C)C(=O)C(C)(C)[C@@H](O)CC(=O)O1
*A* inactive

*Q* // same read-out, input: O=S(=O)(CC1CS1)c1ccc(Oc2ccccc2)cc1 (stereo not given)
*A* inactive
